Provide the reported Kd of each item.
Molecular target: FGFR3 (Homo sapiens (Human), UniProt P22607)
Sequence (P22607 23-806): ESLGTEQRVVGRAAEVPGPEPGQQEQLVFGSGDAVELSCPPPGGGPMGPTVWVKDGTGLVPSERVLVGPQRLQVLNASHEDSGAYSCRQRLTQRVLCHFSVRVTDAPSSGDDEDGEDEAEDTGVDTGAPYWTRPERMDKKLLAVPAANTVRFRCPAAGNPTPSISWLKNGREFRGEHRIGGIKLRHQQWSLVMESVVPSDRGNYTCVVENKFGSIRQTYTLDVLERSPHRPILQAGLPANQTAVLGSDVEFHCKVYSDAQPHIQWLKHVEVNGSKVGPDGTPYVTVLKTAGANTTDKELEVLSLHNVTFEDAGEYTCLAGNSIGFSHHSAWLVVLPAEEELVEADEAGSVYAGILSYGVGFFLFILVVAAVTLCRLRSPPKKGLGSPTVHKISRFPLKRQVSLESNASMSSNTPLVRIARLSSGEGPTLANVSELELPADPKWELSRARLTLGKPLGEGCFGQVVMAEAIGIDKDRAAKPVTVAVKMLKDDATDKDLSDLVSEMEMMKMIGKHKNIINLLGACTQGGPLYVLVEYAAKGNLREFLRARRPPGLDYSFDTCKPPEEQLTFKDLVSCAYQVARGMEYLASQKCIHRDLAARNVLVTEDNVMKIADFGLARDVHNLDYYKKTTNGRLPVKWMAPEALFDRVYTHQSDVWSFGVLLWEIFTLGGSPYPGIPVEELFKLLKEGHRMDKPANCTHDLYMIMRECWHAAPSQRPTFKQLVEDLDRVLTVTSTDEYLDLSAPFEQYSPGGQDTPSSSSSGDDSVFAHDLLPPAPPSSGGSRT
Experiment: Kinase assay, binding constants (Kd), kinase-tagged T7 phage, qPCR

## Input Given the entry C[C@@H](Oc1ccc2[nH]nc(-c3cnc(N4CCC5(CC4)C(=O)NCCN5C)nc3)c2c1)c1c(Cl)cncc1Cl [Example 58] , report its measured Kd.
## Output 1 to 20 nM

## Input # Kd lookup, item C[C@@H](Oc1ccc2[nH]nc(-c3cnc(N4CCC5(CCC(=O)N5)CC4)nc3)c2c1)c1c(Cl)cncc1Cl [Example 48]
## Output 1 to 20 nM

## Input Would you mind telling me what Kd value was observed for C[C@@H](Oc1ccc2[nH]nc(-c3cnc(N4CC5(CCCN(S(C)(=O)=O)C5)C4)nc3)c2c1)c1c(Cl)cncc1Cl [Example 134] ?
## Output 1 to 20 nM

## Input Could you tell me which Kd is on file for COc1cc(-c2n[nH]c3ccc(O[C@H](C)c4c(Cl)cncc4Cl)cc23)cnc1N1CCOCC1 [Example 105] ?
## Output 100 to 300 nM

## Input GET /values?readout=Kd&item= COc1cc2[nH]nc(-c3cnc(N4CC5(C4)CN(S(C)(=O)=O)C5)c(F)c3)c2cc1O[C@H](C)c1c(Cl)cnc(C)c1Cl [Example 243]
## Output 1 to 20 nM

## Input Consider the compound C[C@@H](Oc1ccc2[nH]nc(-c3cnc(Cl)nc3)c2c1)c1c(Cl)cncc1Cl [Example 59] and give its measured Kd.
## Output 20 to 100 nM

## Input Record request: Kd value, item C[C@@H](Oc1ccc2[nH]nc(-c3ccc(N4CC5(CCCN(S(C)(=O)=O)C5)C4)nc3)c2c1)c1c(Cl)cncc1Cl [Example 162]
## Output 1 to 20 nM

## Input Given the entry C[C@@H](Oc1ccc2[nH]nc(-c3ccc(N4CC5(C4)CN(S(C)(=O)=O)C5)nc3)c2c1)c1c(Cl)cnnc1Cl [Example 246] , report its measured Kd.
## Output 1 to 20 nM

## Input Any idea what Kd was measured for C[C@@H](Oc1cc2c(-c3cnc(N4CC5(C4)CN(S(C)(=O)=O)C5)c(C#N)c3)n[nH]c2cc1Cl)c1c(Cl)cncc1Cl [Example 359] ?
## Output 1 to 20 nM

## Input Requested read-out: Kd. Entry: C[C@@H](Oc1ccc2[nH]nc(-c3cnc(N4CCC5(CC4)C(=O)NCCN5C)c(F)c3)c2c1)c1c(Cl)cncc1Cl [Example 44]
## Output 1 to 20 nM

## Input For COc1cc2[nH]nc(-c3cnc(N4CC5(COC5)C4)c(C#N)c3)c2cc1O[C@H](C)c1c(C)cnnc1C [Example 218] , what is its reported Kd?
## Output 20 to 100 nM

## Input Request the reported Kd associated with Cc1cc2[nH]nc(-c3cnc(N4CC5(C4)CN(S(C)(=O)=O)C5)c(F)c3)c2cc1O[C@H](C)c1c(Cl)cnc(C)c1Cl [Example 273]
## Output 1 to 20 nM

## Input What does the data say about its Kd? Entry: C[C@@H](Oc1ccc2[nH]nc(-c3cnn(C4CCN(C5COC5)CC4)c3)c2c1)c1c(Cl)cncc1Cl [Example 87]
## Output 1 to 20 nM

## Input Entry C[C@@H](Oc1ccc2[nH]nc(-c3cnc(N4CC5(CCCN(S(C)(=O)=O)C5)C4)c(C#N)c3)c2c1)c1c(Cl)cncc1Cl [Example 338] : reported Kd = ?
## Output 20 to 100 nM

----------
Target: FGFR3 (Homo sapiens (Human), UniProt P22607)
Experiment: Kinase assay, binding constants (Kd), kinase-tagged T7 phage, qPCR
MEASURE NAME: Kd

## Input Give the measured Kd of C[C@@H](Oc1ccc2[nH]nc(-c3cnc(N4CC5C(O)C5C4)c(C#N)c3)c2c1)c1c(Cl)cncc1Cl (stereo partly shown) .
## Output 1 to 20 nM

## Input Could you tell me which Kd is on file for COc1cc(-c2n[nH]c3ccc(O[C@H](C)c4c(C)cnnc4C)cc23)cnc1N1CC2CC(C1)N2 ?
## Output 20 to 100 nM

## Input Looking for the measured Kd of CCOC(=O)N1CC2(C1)CN(c1ccc(-c3n[nH]c4ccc(O[C@H](C)c5c(Cl)cnc(C)c5Cl)cc34)cn1)C2 , can you help?
## Output 1 to 20 nM

## Input Entry CC(Oc1ccc2[nH]nc(-c3cnn(C4CCN(C5COC5)CC4)c3)c2c1)c1c(Cl)ccnc1Cl (stereo not shown) has what Kd?
## Output 1 to 20 nM

----------
Biological target: FGFR1 (Homo sapiens (Human))
Sequence (P11362 22-822): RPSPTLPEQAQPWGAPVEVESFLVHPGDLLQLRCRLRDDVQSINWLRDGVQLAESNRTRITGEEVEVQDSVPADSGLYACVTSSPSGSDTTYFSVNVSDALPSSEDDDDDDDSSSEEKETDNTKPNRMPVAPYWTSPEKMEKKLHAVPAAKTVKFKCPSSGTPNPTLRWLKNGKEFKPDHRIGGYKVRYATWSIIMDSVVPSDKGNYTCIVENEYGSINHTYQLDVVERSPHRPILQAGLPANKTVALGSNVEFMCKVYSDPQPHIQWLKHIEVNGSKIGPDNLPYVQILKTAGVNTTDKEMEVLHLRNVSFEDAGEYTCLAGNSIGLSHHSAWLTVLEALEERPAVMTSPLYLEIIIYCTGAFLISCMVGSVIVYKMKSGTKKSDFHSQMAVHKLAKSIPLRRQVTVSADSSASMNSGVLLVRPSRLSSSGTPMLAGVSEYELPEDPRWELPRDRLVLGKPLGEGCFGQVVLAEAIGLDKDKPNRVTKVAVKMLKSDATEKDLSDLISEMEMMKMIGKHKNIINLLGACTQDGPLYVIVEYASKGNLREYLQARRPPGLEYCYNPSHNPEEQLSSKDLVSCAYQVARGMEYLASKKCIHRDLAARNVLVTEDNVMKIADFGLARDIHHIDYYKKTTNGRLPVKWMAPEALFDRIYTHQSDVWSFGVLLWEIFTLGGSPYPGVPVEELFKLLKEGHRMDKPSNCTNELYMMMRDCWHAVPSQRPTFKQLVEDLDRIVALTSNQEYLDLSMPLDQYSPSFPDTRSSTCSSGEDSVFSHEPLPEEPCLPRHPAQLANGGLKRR
Assay: Kinase assay, binding constants (Kd), kinase-tagged T7 phage, qPCR
Would you kindly list Kd for each of these molecules?

## Input What does the record list as Kd for Cc1ncc(Cl)c([C@@H](C)Oc2ccc3[nH]nc(-c4cnn(C5CCN(C(C)C)CC5)c4)c3c2)c1Cl ?
## Output 1 to 20 nM

## Input Look up Kd for this molecule: Cc1cnnc(C)c1[C@@H](C)Oc1ccc2[nH]nc(-c3cnc(N4CC[C@H](C(C)(C)O)C4)c(C#N)c3)c2c1
## Output 100 to 300 nM

## Input Give the measured Kd of CNC1(C)CN(c2ncc(-c3n[nH]c4cc(Cl)c(O[C@H](C)c5c(Cl)cnc(C)c5Cl)cc34)cc2F)C1 .
## Output 1 to 20 nM

## Input Param item = COc1cc2[nH]nc(-c3cnc(N4CC[C@H](C(C)(C)O)C4)c(C#N)c3)c2cc1O[C@H](C)c1c(C)cnnc1C ; retrieve measured Kd.
## Output 20 to 100 nM

## Input Data request, read-out Kd, for COc1cc2[nH]nc(-c3ccc(N4CCCC4)nc3)c2cc1O[C@H](C)c1c(C)cnnc1C
## Output 1 to 20 nM

## Input Form field: reported Kd of C[C@@H](Oc1ccc2[nH]nc(-c3ccc(N4CC5(CCS(=O)(=O)CC5)C4)nc3)c2c1)c1c(Cl)cncc1Cl
## Output 1 to 20 nM

## Input Consider the molecule C[C@@H](Oc1ccc2[nH]nc(-c3cnc(N4CC5(C4)CN(S(C)(=O)=O)C5)nc3)c2c1)c1c(Cl)cncc1Cl and give its measured Kd.
## Output 20 to 100 nM

----------
Target: FGFR1 (Homo sapiens (Human))
Assay: Kinase assay, binding constants (Kd), kinase-tagged T7 phage, qPCR
Could you please report measured Kd for the items listed next?

## Input What measured Kd goes with C[C@@H](Oc1ccc2[nH]nc(-c3ccc(N4CC5(CCN(S(C)(=O)=O)CC5)C4)nc3)c2c1)c1c(Cl)cncc1Cl [Example 111] ?
## Output 20 to 100 nM

## Input Return reported Kd; argument: Cc1cncc(C)c1[C@H](C)Oc1ccc2[nH]nc(-c3ccc(N4CC5(C4)CN(S(C)(=O)=O)C5)nc3)c2c1 [Example 140]
## Output > 300 nM

## Input Quick one: Kd of Cc1cc(-c2n[nH]c3ccc(O[C@H](C)c4c(Cl)cnc(C)c4Cl)cc23)cnc1N1CC2(C1)CN(S(C)(=O)=O)C2 [Example 235] ?
## Output 100 to 300 nM

## Input Entry Cc1cc2[nH]nc(-c3cnc(N4CC5(C4)CN(S(C)(=O)=O)C5)c(F)c3)c2cc1O[C@H](C)c1c(Cl)cnc(C)c1Cl [Example 273] : reported Kd = ?
## Output 20 to 100 nM

## Input What value of Kd has been recorded for this entry: C[C@@H](Oc1cc2c(-c3cnc(N4CC5(CCS(=O)(=O)C5)C4)c(C#N)c3)n[nH]c2cc1F)c1c(Cl)cncc1Cl [Example 378]
## Output 100 to 300 nM

## Input Could you tell me which Kd is on file for C[C@@H](Oc1ccc2[nH]nc(-c3cnn([C@H]4CCNC4)c3)c2c1)c1c(Cl)cncc1Cl [Example 88] ?
## Output 1 to 20 nM

## Input // query Kd value for entry C[C@@H](Oc1ccc2[nH]nc(-c3cnc(N4CC(C)(N)C4)c(F)c3)c2c1)c1c(Cl)cncc1Cl [Example 265]
## Output 1 to 20 nM

----------
Target: FGFR2 (Homo sapiens (Human))
Sequence (P21802 22-821): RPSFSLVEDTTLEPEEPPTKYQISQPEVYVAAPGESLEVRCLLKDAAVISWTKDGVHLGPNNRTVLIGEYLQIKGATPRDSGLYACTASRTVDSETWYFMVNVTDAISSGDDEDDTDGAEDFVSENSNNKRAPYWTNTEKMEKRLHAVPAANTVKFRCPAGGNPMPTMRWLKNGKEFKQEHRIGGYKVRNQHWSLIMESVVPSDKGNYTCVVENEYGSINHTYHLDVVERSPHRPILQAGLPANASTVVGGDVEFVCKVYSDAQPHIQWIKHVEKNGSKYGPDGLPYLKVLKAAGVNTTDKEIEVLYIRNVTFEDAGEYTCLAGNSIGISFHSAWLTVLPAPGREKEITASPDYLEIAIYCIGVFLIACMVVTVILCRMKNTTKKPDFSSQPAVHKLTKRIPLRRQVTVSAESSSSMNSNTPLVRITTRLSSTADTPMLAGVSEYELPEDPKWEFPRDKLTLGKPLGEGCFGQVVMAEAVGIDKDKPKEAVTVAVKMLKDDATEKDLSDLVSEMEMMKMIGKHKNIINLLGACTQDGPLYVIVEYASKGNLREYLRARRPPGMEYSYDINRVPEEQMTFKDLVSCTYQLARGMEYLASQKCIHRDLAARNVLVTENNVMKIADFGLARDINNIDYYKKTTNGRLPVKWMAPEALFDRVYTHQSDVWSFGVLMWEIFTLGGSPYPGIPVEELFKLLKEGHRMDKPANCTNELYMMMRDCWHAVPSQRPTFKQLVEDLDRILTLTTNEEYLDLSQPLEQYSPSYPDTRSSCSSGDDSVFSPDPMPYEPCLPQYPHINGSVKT
Experiment: Kinase assay, binding constants (Kd), kinase-tagged T7 phage, qPCR
MEASURE NAME: Kd

## Input // lookup Kd for CCN1CC[C@H](n2cc(-c3n[nH]c4ccc(O[C@H](C)c5c(Cl)cncc5Cl)cc34)cn2)C1 [Example 89]
## Output 1 to 20 nM

## Input Reported Kd, molecule C[C@@H](Oc1ccc2[nH]nc(-c3ccc(C4CCNCC4)nc3)c2c1)c1c(Cl)cncc1Cl [Example 69] : ____
## Output 1 to 20 nM

## Input Record request: Kd value, item Cc1ncc(Cl)c([C@@H](C)Oc2ccc3[nH]nc(-c4cnc(N5CC6(CCCN(S(C)(=O)=O)C6)C5)c(C#N)c4)c3c2)c1Cl [Example 350]
## Output 100 to 300 nM

## Input Which Kd value belongs to C[C@H](Oc1ccc2[nH]nc(-c3ccc(N4CC5(C4)CN(S(C)(=O)=O)C5)nc3)c2c1)c1c(Cl)cnc(F)c1Cl [Example 199] ?
## Output > 300 nM

## Input Look up Kd: C[C@@H](Oc1ccc2[nH]nc(-c3cnc(N4CC(C)(N)C4)c(F)c3)c2c1)c1c(Cl)cncc1Cl [Example 265]
## Output 1 to 20 nM

## Input # query: Kd of entry Cc1ncc(Cl)c([C@@H](C)Oc2ccc3[nH]nc(-c4cnn(C5CCNCC5)c4)c3c2)c1Cl [Example 92]
## Output 1 to 20 nM

## Input Which Kd value is on record for C[C@@H](Oc1ccc2[nH]nc(-c3ccc(N4CCN(C(=O)N(C)C)C5(CC5)C4)nc3)c2c1)c1c(Cl)cncc1Cl [Example 23] ?
## Output > 300 nM

## Input Requested read-out: Kd. Entry: C[C@@H](Oc1ccc2[nH]nc(-c3cnc(N4CC(O)C4)c(C#N)c3)c2c1)c1c(Cl)cnc(F)c1Cl [Example 287]
## Output > 300 nM

## Input Which value of Kd has been reported for C[C@@H](Oc1ccc2[nH]nc(-c3ccc(N4CCC[C@@H]4CO)nc3)c2c1)c1c(Cl)cncc1Cl [Example 236] in the records?
## Output 1 to 20 nM

## Input Give the measured Kd of Cc1cnnc(C)c1[C@@H](C)Oc1ccc2[nH]nc(-c3ccc(N4CC5(CCOC5)C4)nc3)c2c1 [Example 206] .
## Output 1 to 20 nM

## Input Value lookup for Kd; key = C[C@@H](Oc1ccc2[nH]nc(-c3cnn(C4CCNCC4)c3)c2c1)c1c(Cl)cncc1Cl [Example 64]
## Output 1 to 20 nM

## Input May I ask what Kd has been recorded for C[C@@H](Oc1ccc2[nH]nc(-c3cnc(N4CCC(O)CC4)c(C#N)c3)c2c1)c1c(Cl)cncc1Cl [Example 298] ?
## Output 20 to 100 nM

## Input What value of Kd has been recorded for this entry: C[C@@H](Oc1ccc2[nH]nc(-c3cnn(C4CNC4)c3)c2c1)c1c(Cl)cncc1Cl [Example 85]
## Output 1 to 20 nM

## Input Look up Kd: COC1(C)CN(c2ccc(-c3n[nH]c4ccc(O[C@H](C)c5c(Cl)cnc(C)c5Cl)cc34)cn2)C1 [Example 210]
## Output 1 to 20 nM
